target: DAT (Rattus norvegicus); construct: rat striatum was the source for DAT, and cerebral cortex for SERT and NET; from tissue; P2 synaptosomal fraction for uptake; assay: Inhibition of [3H]WIN 35,428 binding to DAT; settings: Table 4; rat brain; read-out: DAT binding, IC50, [3H]Win 35,428
measured_endpoint: IC50 (µM)
Reply numerically in µM, unit not repeated.

>  <molecule>
COc1ccc(CN[C@H]2C[C@H](C(c3ccccc3)c3ccccc3)OC[C@H]2O)cc1 [(+)-29g]

>  <system>
DAT (Rattus norvegicus)

>  <IC50 / µM>
3.75

$$$$
>  <molecule>
O[C@@H]1CO[C@H](C(c2ccccc2)c2ccccc2)C[C@H]1NCc1ccccc1 [(−)-29h]

>  <system>
DAT (Rattus norvegicus)

>  <IC50 / µM>
4.64

$$$$
>  <molecule>
Oc1ccc(CN[C@H]2CC[C@@H](C(c3ccccc3)c3ccccc3)OC2)cc1 [(−)-37a]

>  <system>
DAT (Rattus norvegicus)

>  <IC50 / µM>
0.28

$$$$

Now for a further molecule.
Identify measured IC50 associated with COc1ccc(CN[C@@H]2CO[C@H](C(c3ccccc3)c3ccccc3)C[C@H]2O)c(OC)c1 [(−)-29e]
1.06

* * *

Entries annotated with measured NET binding/DAT binding
tested on: NET; experiment: Inhibition of [3H]nisoxetine binding to NET; design: species or system rat; conditions: Table 3; selectivity ratio of IC50 values
Output: the number by itself.

>  <compound>
Fc1ccc(CN[C@H]2CC[C@H](C(c3ccccc3)c3ccccc3)OC2)cc1 (relative stereo) [Compound 16a]

>  <experimental_result>
40.6

$$$$
>  <compound>
Fc1ccc(CN[C@H]2CC[C@@H](C(c3ccccc3)c3ccccc3)OC2)cc1 (relative stereo) [Compound 16b]

>  <experimental_result>
1.4

$$$$
>  <compound>
Fc1ccc(CN[C@H]2CCO[C@@H](C(c3ccccc3)c3ccccc3)C2)cc1 (relative stereo)

>  <experimental_result>
3.9

$$$$
>  <compound>
Brc1ccc(CN[C@H]2CC[C@@H](C(c3ccccc3)c3ccccc3)OC2)cc1 (relative stereo) [Compound 16l]

>  <experimental_result>
2.93

$$$$
>  <compound>
Fc1ccc(CN[C@@H]2CCO[C@@H](C(c3ccccc3)c3ccccc3)C2)cc1 (relative stereo)

>  <experimental_result>
11.1

$$$$

Identify measured NET binding/DAT binding associated with Ic1ccc(CN[C@H]2CC[C@@H](C(c3ccccc3)c3ccccc3)OC2)cc1 (relative stereo) [Compound 16m]
0.73

Identify measured NET binding/DAT binding associated with c1ccc(CN[C@H]2CC[C@@H](C(c3ccccc3)c3ccccc3)OC2)cc1 (relative stereo) [Compound 16k]
0.90

Identify measured NET binding/DAT binding associated with Clc1ccc(CN[C@H]2CC[C@@H](C(c3ccccc3)c3ccccc3)OC2)cc1Cl (relative stereo) [Compound 16i]
0.36

Identify measured NET binding/DAT binding associated with c1ccc(C(c2ccccc2)[C@@H]2CC[C@H](NCc3ccc4[nH]ccc4c3)CO2)cc1 (relative stereo) [Compound 16n]
0.09

* * *

Entries annotated with measured pIC50
biological target: SERT (Rattus norvegicus, UniProt P31652); construct: rat striatum was the source for DAT, and cerebral cortex for SERT and NET; from tissue; host or cells: rat cerebral cortex; experiment: Inhibition of [3H]citalopram binding to SERT; settings: Table 1; read-out: Inhibition of [3H]citalopram binding to SERT, IC50
Sequence (P31652 whole entry): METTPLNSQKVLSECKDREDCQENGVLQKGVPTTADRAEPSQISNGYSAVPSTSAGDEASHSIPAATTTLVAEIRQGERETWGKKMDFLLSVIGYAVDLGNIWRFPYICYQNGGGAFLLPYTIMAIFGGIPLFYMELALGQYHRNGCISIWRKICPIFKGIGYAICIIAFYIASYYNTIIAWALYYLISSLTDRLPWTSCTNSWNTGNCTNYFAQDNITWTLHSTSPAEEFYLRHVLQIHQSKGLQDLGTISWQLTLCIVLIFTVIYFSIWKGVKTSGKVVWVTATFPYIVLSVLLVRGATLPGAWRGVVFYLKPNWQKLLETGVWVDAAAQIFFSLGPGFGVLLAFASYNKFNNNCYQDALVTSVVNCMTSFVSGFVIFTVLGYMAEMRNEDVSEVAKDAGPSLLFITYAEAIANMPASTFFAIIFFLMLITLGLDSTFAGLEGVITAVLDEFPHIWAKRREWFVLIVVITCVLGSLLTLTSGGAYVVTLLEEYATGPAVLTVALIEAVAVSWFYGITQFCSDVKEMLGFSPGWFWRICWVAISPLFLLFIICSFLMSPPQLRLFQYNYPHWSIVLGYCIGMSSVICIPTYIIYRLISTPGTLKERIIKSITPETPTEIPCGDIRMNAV
pIC50 is a log-scale quantity: -log10 of the concentration expressed in molar.

Identify measured pIC50 associated with Fc1ccc(CN[C@H]2CCO[C@@H](C(c3ccccc3)c3ccccc3)C2)cc1 (relative stereo) [Compound 7a]
5.48

Identify measured pIC50 associated with Fc1ccc(CN[C@@H]2CCO[C@@H](C(c3ccccc3)c3ccccc3)C2)cc1 (relative stereo) [Compound 7b]
5.32

Identify measured pIC50 associated with c1ccc(CN[C@H]2CC[C@@H](C(c3ccccc3)c3ccccc3)OC2)cc1 (relative stereo) [Compound 16k]
5.80

Identify measured pIC50 associated with Fc1ccc(CN[C@H]2CC[C@H](C(c3ccccc3)c3ccccc3)OC2)cc1 (relative stereo) [Compound 16a]
5.08

* * *

Entries annotated with measured pIC50
molecular target: SERT (Rattus norvegicus, UniProt P31652); construct: rat striatum was the source for DAT, and cerebral cortex for SERT and NET; from tissue; host or cells: rat cerebral cortex; assay: Inhibition of [3H]citalopram binding to SERT; settings: Table 2; average ± SEM; read-out: SERT binding, IC50 [3H]citalopram
pIC50 is a log-scale quantity: -log10 of the concentration expressed in molar.

>  <compound>
c1ccc(CN[C@H]2CC[C@@H](C(c3ccccc3)c3ccccc3)OC2)cc1 (relative stereo) [Compound 16k]

>  <system>
SERT (Rattus norvegicus, UniProt P31652)

>  <pIC50>
5.80

$$$$
>  <compound>
Brc1ccc(CN[C@H]2CC[C@@H](C(c3ccccc3)c3ccccc3)OC2)cc1 (relative stereo) [Compound 16l]

>  <system>
SERT (Rattus norvegicus, UniProt P31652)

>  <pIC50>
5.63

$$$$
>  <compound>
Fc1ccc(CCN[C@H]2CC[C@@H](C(c3ccccc3)c3ccccc3)OC2)cc1 (relative stereo) [Compound 16p]

>  <system>
SERT (Rattus norvegicus, UniProt P31652)

>  <pIC50>
5.40

$$$$
>  <compound>
Oc1ccc(CN[C@H]2CC[C@@H](C(c3ccccc3)c3ccccc3)OC2)cc1 (relative stereo) [Compound 16h]

>  <system>
SERT (Rattus norvegicus, UniProt P31652)

>  <pIC50>
6.40

$$$$

Identify measured pIC50 associated with Fc1ccc(CN[C@H]2CC[C@@H](C(c3ccccc3)c3ccccc3)OC2)cc1 (relative stereo) [Compound 16b]
5.73

Identify measured pIC50 associated with c1ccc(C(c2ccccc2)C2CCC(NCc3cc4ccccc4[nH]3)CO2)cc1 (stereo not drawn) [Compound 16g]
5.79

Identify measured pIC50 associated with Fc1ccc(CN[C@H]2CCO[C@@H](C(c3ccccc3)c3ccccc3)C2)cc1 (relative stereo) [Compound 7a]
5.48

Identify measured pIC50 associated with c1ccc(C(c2ccccc2)[C@@H]2CC[C@H](NCc3ccc4[nH]ccc4c3)CO2)cc1 (relative stereo) [Compound 16n]
6.49

Identify measured pIC50 associated with c1ccc(C(c2ccccc2)C2CCC(NCc3c[nH]c4ccccc34)CO2)cc1 (stereo not drawn) [Compound 16f]
5.59

Identify measured pIC50 associated with Clc1ccc(CN[C@H]2CC[C@@H](C(c3ccccc3)c3ccccc3)OC2)cc1Cl (relative stereo) [Compound 16i]
6.11

Identify measured pIC50 associated with N#Cc1ccc(CN[C@H]2CC[C@@H](C(c3ccccc3)c3ccccc3)OC2)cc1 (relative stereo) [Compound 16c]
6.06

Identify measured pIC50 associated with Fc1ccc(CN[C@@H]2CCO[C@@H](C(c3ccccc3)c3ccccc3)C2)cc1 (relative stereo) [Compound 7b]
5.32

Identify measured pIC50 associated with Fc1ccc(CN[C@H]2CC[C@H](C(c3ccccc3)c3ccccc3)OC2)cc1 (relative stereo) [Compound 16a]
5.08

Identify measured pIC50 associated with Ic1ccc(CN[C@H]2CC[C@@H](C(c3ccccc3)c3ccccc3)OC2)cc1 (relative stereo) [Compound 16m]
5.61

Identify measured pIC50 associated with Fc1ccc(CN[C@H]2CC[C@@H](C(c3ccccc3)c3ccccc3)OC2)cc1F (relative stereo) [Compound 16j]
5.45

* * *

Entries annotated with measured melting point
Structures can show the parent of a compound that is named as a salt.

Identify measured melting point associated with O[C@H]1C[C@H](C(c2ccccc2)c2ccccc2)OC[C@@H]1NCc1ccc(F)cc1 (as salt: oxalate) [(+)-29b]
223 to 225 °C

Identify measured melting point associated with O[C@H]1C[C@H](C(c2ccccc2)c2ccccc2)OC[C@@H]1NCCc1ccc(F)cc1 (as salt: oxalate) [(+)-29c]
203 to 205 °C

Identify measured melting point associated with Brc1ccc(CN[C@H]2CC[C@@H](C(c3ccccc3)c3ccccc3)OC2)cc1 (relative stereo) (as salt: oxalate) [Compound 16l]
250 to 252 °C

Identify measured melting point associated with Fc1ccc(CN[C@H]2CCO[C@@H](C(c3ccccc3)c3ccccc3)C2)cc1 (relative stereo) (as salt: oxalate)
177 to 181 °C

Identify measured melting point associated with COc1ccc(CN[C@@H]2C[C@@H](C(c3ccccc3)c3ccccc3)OC[C@@H]2O)cc1 (as salt: oxalate) [(−)-29g]
234 to 235 °C

Identify measured melting point associated with Clc1ccc(CN[C@H]2CC[C@@H](C(c3ccccc3)c3ccccc3)OC2)cc1Cl (relative stereo) (as salt: oxalate) [Compound 16i]
251 to 252 °C

* * *

target: DAT (Rattus norvegicus, UniProt P23977); construct: rat striatum was the source for DAT, and cerebral cortex for SERT and NET; from tissue; P2 synaptosomal fraction for uptake; assay: Inhibition of [3H]DA uptake by DAT into rat striatal synaptosomes; assay type: biochemical; settings: Table 2; average ± SEM; read-out: DAT uptake, IC50 [3H]DA
Sequence (P23977 whole entry): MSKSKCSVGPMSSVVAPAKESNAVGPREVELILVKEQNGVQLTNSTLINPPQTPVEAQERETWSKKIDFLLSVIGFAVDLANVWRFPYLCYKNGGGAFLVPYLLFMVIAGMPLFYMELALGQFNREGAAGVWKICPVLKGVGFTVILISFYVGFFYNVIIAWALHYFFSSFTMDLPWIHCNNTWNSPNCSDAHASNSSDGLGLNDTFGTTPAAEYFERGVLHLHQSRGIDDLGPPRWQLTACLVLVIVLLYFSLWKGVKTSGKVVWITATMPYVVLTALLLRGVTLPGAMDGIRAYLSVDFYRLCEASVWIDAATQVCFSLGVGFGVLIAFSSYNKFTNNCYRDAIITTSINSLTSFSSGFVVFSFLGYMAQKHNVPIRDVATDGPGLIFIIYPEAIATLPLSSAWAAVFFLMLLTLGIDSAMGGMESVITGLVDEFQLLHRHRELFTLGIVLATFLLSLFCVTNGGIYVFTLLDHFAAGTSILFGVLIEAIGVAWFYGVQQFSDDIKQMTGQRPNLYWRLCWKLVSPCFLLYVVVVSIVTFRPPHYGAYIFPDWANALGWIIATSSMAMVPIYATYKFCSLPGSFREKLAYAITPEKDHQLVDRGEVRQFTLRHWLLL
Entries annotated with measured IC50
Reply numerically in nM, unit not repeated.

>  <compound>
COc1ccc(CN[C@H]2CC[C@@H](C(c3ccccc3)c3ccccc3)OC2)cc1 (relative stereo) [Compound 16e]

>  <measurement_unit>
nM

>  <IC50>
59.5

$$$$
>  <compound>
Brc1ccc(CN[C@H]2CC[C@@H](C(c3ccccc3)c3ccccc3)OC2)cc1 (relative stereo) [Compound 16l]

>  <measurement_unit>
nM

>  <IC50>
251

$$$$
>  <compound>
Fc1ccc(CN[C@H]2CC[C@@H](C(c3ccccc3)c3ccccc3)OC2)cc1 (relative stereo) [Compound 16b]

>  <measurement_unit>
nM

>  <IC50>
146

$$$$
>  <compound>
N[C@H]1CC[C@@H](C(c2ccccc2)c2ccccc2)OC1 (relative stereo) [Compound 15]

>  <measurement_unit>
nM

>  <IC50>
251

$$$$
>  <compound>
Ic1ccc(CN[C@H]2CC[C@@H](C(c3ccccc3)c3ccccc3)OC2)cc1 (relative stereo) [Compound 16m]

>  <measurement_unit>
nM

>  <IC50>
500

$$$$
>  <compound>
Clc1ccc(CN[C@H]2CC[C@@H](C(c3ccccc3)c3ccccc3)OC2)cc1Cl (relative stereo) [Compound 16i]

>  <measurement_unit>
nM

>  <IC50>
880

$$$$
>  <compound>
c1ccc(CN[C@H]2CC[C@@H](C(c3ccccc3)c3ccccc3)OC2)cc1 (relative stereo) [Compound 16k]

>  <measurement_unit>
nM

>  <IC50>
242

$$$$
>  <compound>
c1ccc(C(c2ccccc2)C2CCC(NCc3cc4ccccc4[nH]3)CO2)cc1 (stereo not drawn) [Compound 16g]

>  <measurement_unit>
nM

>  <IC50>
135

$$$$

Now for a further compound.
Identify measured IC50 associated with O=[N+]([O-])c1ccc(CN[C@H]2CC[C@@H](C(c3ccccc3)c3ccccc3)OC2)cc1 (relative stereo) [Compound 16d]
102
